Data origin: the supplement of paper PMC3545927

Measured furin cleavage Z-score accompanies every entry in the list below.
target: furin, P09958; assay: furin cleavage Z-score vs untreated control; higher = more cleavage, active = 3.5 or more, inactive = 1 or less, 8 variable residues between constant flanks; conditions: 30 min;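 also: purified furin at 1:10 enzyme:substrate in 50 mM HEPES pH 7.5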
Sequence (P09958 whole entry): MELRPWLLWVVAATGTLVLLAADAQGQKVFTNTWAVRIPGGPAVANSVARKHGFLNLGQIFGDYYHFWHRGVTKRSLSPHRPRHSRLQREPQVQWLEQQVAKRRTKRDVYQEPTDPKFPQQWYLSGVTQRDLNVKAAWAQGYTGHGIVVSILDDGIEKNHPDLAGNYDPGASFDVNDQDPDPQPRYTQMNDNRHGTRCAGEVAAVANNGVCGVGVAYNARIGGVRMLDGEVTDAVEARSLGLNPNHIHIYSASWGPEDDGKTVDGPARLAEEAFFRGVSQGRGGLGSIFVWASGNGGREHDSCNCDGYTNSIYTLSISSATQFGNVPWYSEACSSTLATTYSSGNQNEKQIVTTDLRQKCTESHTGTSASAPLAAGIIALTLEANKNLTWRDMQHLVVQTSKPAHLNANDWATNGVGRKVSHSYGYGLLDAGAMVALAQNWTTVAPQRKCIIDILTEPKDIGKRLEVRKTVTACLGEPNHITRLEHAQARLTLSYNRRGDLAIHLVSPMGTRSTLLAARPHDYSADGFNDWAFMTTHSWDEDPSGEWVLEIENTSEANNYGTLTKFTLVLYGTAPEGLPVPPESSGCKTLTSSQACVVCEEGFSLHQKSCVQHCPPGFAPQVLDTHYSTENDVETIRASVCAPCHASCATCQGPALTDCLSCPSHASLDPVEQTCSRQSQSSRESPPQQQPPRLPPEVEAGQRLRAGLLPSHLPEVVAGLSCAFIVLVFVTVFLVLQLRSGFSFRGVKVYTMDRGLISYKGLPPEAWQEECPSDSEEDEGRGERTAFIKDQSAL
The list shows a part of the results. The true hit rate is not given.
METRIC_NAME: furin cleavage Z-score

[
  {
    "BIOPOLYMER_SEQUENCE": "CARGGRDHGDAGNASASA [FS-2014]",
    "VAL": -1.45
  },
  {
    "BIOPOLYMER_SEQUENCE": "CAEIEVPCHRAGNASASA [HC2444]",
    "VAL": 0.798
  },
  {
    "BIOPOLYMER_SEQUENCE": "CARLRRLAEGAGNASASA [FS-2715]",
    "VAL": -0.211
  },
  {
    "BIOPOLYMER_SEQUENCE": "CAEVPCHHPSAGNASASA [HC2375]",
    "VAL": 0.223
  },
  {
    "BIOPOLYMER_SEQUENCE": "CAVVPCHRPSAGNASASA [HC2310]",
    "VAL": 1.82
  },
  {
    "BIOPOLYMER_SEQUENCE": "CARFGRGFTVAGNASASA [FS-2922]",
    "VAL": 0.349
  },
  {
    "BIOPOLYMER_SEQUENCE": "CAMEECCQHLAGNASASA [HC34]",
    "VAL": 0.844
  },
  {
    "BIOPOLYMER_SEQUENCE": "CARGMRALGVAGNASASA [FS-1710]",
    "VAL": 0.128
  },
  {
    "BIOPOLYMER_SEQUENCE": "CARYRRVITVAGNASASA [FS-1844]",
    "VAL": 0.939
  },
  {
    "BIOPOLYMER_SEQUENCE": "CARYRRWMKNAGNASASA [FS-2321]",
    "VAL": 2.73
  },
  {
    "BIOPOLYMER_SEQUENCE": "CARGKRATTVAGNASASA [FS-3249]",
    "VAL": 8.35
  },
  {
    "BIOPOLYMER_SEQUENCE": "CAMEEYSQHLAGNASASA [HC17]",
    "VAL": 0.59
  },
  {
    "BIOPOLYMER_SEQUENCE": "CARYRRVAEGAGNASASA [FS-1980]",
    "VAL": 4.58
  },
  {
    "BIOPOLYMER_SEQUENCE": "CAHEECSQHLAGNASASA [HC1675]",
    "VAL": 1.48
  },
  {
    "BIOPOLYMER_SEQUENCE": "CARPWRPAEGAGNASASA [FS-2442]",
    "VAL": 0.551
  }
]
